Known pEC50 of a selection of compounds
Target Under Test: Steroidogenic factor 1 (Homo sapiens)
Sequence (Q13285 whole entry, the tested form may be a part): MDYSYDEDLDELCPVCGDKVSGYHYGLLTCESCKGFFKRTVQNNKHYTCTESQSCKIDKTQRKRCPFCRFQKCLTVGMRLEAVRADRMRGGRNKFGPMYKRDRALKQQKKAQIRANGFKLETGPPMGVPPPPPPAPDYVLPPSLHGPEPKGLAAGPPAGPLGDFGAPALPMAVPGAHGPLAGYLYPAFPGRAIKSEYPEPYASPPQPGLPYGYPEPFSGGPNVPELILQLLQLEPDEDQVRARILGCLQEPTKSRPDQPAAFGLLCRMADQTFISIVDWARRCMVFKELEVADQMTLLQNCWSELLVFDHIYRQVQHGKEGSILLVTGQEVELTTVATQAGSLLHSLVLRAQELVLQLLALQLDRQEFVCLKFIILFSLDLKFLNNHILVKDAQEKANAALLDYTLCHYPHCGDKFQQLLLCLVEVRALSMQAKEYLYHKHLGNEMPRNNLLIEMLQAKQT
Assay Explanation: activation of SF-1 LBD reporter – cell-based, CHO-K1, Gal4-SF-1 LBD, luciferase luminescence, dose response (AID 692)
Run Parameters: inactive by the depositor's call
pEC50: −log10 of the molar value.

{"Compound": "O=C(Cc1ccccc1)n1nc(-c2ccccc2)nc1NCc1ccco1", "pEC50": 4.95}
{"Compound": "O=C(CNc1ccccc1)Nc1ccc(F)cc1 [2-anilino-N-(4-fluorophenyl)acetamide]", "pEC50": 4.94}
{"Compound": "Cc1cc(C(=O)Nc2sc3c(c2C#N)CCC(C(C)(C)C)C3)no1 (stereo not drawn)", "pEC50": 5.00}
{"Compound": "CCN(CC)c1ccc(-n2cc3c(=O)n(C)c(=O)n(C)c3c2)cc1", "pEC50": 4.91}
{"Compound": "O=C(Nc1nccs1)c1ccc(COc2ccc(F)cc2)o1", "pEC50": 4.94}
{"Compound": "Fc1cnc(N2CCOCC2)nc1N1CCc2ccccc21", "pEC50": 4.86}
{"Compound": "Cc1cccc(-n2ccnc2SCC(=O)Nc2nccs2)c1", "pEC50": 4.96}
{"Compound": "CCOc1ccc(OCC)c(NC(=O)C2CCCN2S(=O)(=O)c2cccc3cccnc23)c1 (stereo not drawn)", "pEC50": 4.91}
